Molecular target: T1, mouse tenascin-C rCd4-His-FBG (rat; mouse, UniProt P05540 207-392, limits assumed)
T1 construct: domain: domains 3 and 4; C-terminal FBG fusion; biotinylated in the ELISA screen; also called Mu TNC; mouse TNC rCd4-His-FBG; not shown: 6His tag
T1 sequence (chain (part 1 of 2)): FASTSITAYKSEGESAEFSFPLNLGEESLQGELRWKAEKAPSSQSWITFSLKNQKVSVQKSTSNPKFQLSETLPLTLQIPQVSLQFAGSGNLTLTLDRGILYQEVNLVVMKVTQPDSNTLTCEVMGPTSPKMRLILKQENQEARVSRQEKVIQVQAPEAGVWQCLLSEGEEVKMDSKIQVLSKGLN
T1 sequence (chain (part 2 of 2)): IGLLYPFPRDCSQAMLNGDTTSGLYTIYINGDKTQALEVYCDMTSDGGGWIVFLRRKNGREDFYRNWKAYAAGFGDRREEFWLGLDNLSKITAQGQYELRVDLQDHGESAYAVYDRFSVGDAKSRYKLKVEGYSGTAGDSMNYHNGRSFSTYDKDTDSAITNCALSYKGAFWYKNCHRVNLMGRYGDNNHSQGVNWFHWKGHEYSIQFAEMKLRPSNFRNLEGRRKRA
Assay: anti-FLAG capture ELISA, scFv supernatant
In this section, each of the binders is paired with its reported fold improvement in binding over parent.

Look over these answered cases.
binder	fold improvement in binding over parent
165_13_B6 scFv (scFv, V domains shown, not shown: small tags and cut ends, E. coli supernatant scFv) VH: QVQLVESGGGLVQPGRSLRLSCAASGFTFDDYAMHWVRQAPGKGLEWVSGISGSGGSTYYADSVKGRFTISRDNAKNSLYLQMNSLRAEDTALYYCAKGQKGEGDTFDIWGQGTMVTVSS VL: DIQMTQSPASLPTPVGDRVTITCRASQYIQGFLNWYQQKPGKAPKLLIYDASNLETGVPSRFSGSGSGTDFTLTISSLQPEDFATYYCQQSYSTPQTFGQGTKVDIK	≥ 4 fold
162_02_C6 scFv (scFv, V domains shown, not shown: small tags and cut ends, E. coli supernatant scFv) VH: EVRLVQSGAEVKKPGASVKVSCKVSGYTLTELSMHWVRQAPGKGLEWMGGFDPEDGETIYAQKFQGRVTMTEDTSTDTAYMELSSLRSEDTAVYYCATAQKETYALTYWGQGTLVTVSS VL: DIQMTQSPASLPTSVGDRVTITCRASQYIQGFLNWYQQKPGKAPRLLIYAASTLQDGVPSRFSGSGYGTDFTLTISSLQPEDFATYYCQNQYAGPWTFGQGTKVEIK	≥ 10 fold
161_01_C11 scFv (scFv, V domains shown, not shown: small tags and cut ends, E. coli supernatant scFv) VH: EVRLVQSGAEVKKPGASVKVSCKVSGYTLTELSMHWVRQAPGKGLEWMGGFDPEDGETIYAQKFQGRVTMTEDTSTDTAYMELSSLRSEDTAVYYCATAQKEWLPDVTWGQGTLVTVSS VL: DIQMTQSPASLPTSVGDRVTITCRASQYIQGFLNWYQQKPGKAPRLLIYAASTLQDGVPSRFSGSGYGTDFTLTISSLQPEDFATYYCQQSYSTPWTFGQGTKVEIK	≥ 10 fold
165_13_D1 scFv (scFv, V domains shown, not shown: small tags and cut ends, E. coli supernatant scFv) VH: QVQLVESGGGLVQPGRSLRLSCAASGFTFDDYAMHWVRQAPGKGLEWVSGISGSGGSTYYADSVKGRFTISRDNAKNSLYLQMNSLRAEDTALYYCAKGTRGEGDTFDIWGQGTMVTVSS VL: DIQMTQSPASLPTPVGDRVTITCRASQYIQGFLNWYQQKPGKAPKLLIYDASNLETGVPSRFSGSGSGTDFTLTISSLQPEDFATYYCQQSYSTPQTFGQGTKVDIK	≥ 4 fold

Now examine the next entry.
Would you mind telling me what fold improvement in binding over parent value was observed for 162_02_C2 scFv (scFv, V domains shown, not shown: small tags and cut ends, E. coli supernatant scFv) VH: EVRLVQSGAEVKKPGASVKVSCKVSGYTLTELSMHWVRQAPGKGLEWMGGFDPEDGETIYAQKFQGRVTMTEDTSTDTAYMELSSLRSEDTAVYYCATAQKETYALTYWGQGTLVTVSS VL: DIQMTQSPASLPTSVGDRVTITCRASQYIQGFLNWYQQKPGKAPRLLIYAASTLQDGVPSRFSGSGYGTDFTLTISSLQPEDFATYYCMHHYRAPWTFGQGTKVEIK ?
≥ 10 fold

Every entry's value here was drawn from patent US20170306005A1.
